- procedure summary: Haemolytic activity in human RBC measured after 30 mins by spectrophotometric analysis
- Format: toxicity, cell-based, Erythrocyte
- condition info: red blood cells (RBC), read-out: Activity
Listed below: hemolysis at 0.5 h values for each entry.
Numbers only here, please. The scale is %.

O=S(=O)(O)c1cc2c(O)c(c1)Cc1cc(S(=O)(=O)O)cc(c1O)Cc1cc(S(=O)(=O)O)cc(c1O)Cc1cc(S(=O)(=O)O)cc(c1O)Cc1cc(S(=O)(=O)O)cc(c1O)Cc1cc(S(=O)(=O)O)cc(c1O)Cc1cc(S(=O)(=O)O)cc(c1O)Cc1cc(S(=O)(=O)O)cc(c1O)C2 = 29

Asked: # hemolysis at 0.5 h lookup, item O=S(=O)(O)c1cc2c(O)c(c1)Cc1cc(S(=O)(=O)O)cc(c1O)Cc1cc(S(=O)(=O)O)cc(c1O)Cc1cc(S(=O)(=O)O)cc(c1O)Cc1cc(S(=O)(=O)O)cc(c1O)Cc1cc(S(=O)(=O)O)cc(c1O)C2
Given back: 12
